Tested on: SF-295 CNS cancer
Method description: Cytotoxicity, SF-295
Test context: read-out: cytotoxicity GI50, SF-295; 50% growth inhibition; average of two determinations; 8640 min
Documented GI50 across a set of compounds

| Compound | Measured on | GI50 |
| --- | --- | --- |
| COc1cc(CNc2ccc(SC)cc2)cc(OC)c1OC [109e] | SF-295 CNS cancer | 7.28 µM |
| CCOc1ccc(N=Cc2cc(OC)c(OC)c(OC)c2)cc1 [108d] | SF-295 CNS cancer | > 100 µM |

Proceeding to the next compound to report its GI50.
I am curious: what GI50 value has been reported for CCc1ccc(NCc2cc(OC)c(OC)c(OC)c2)cc1 [109b] ?
0.266 µM
